# Test system: Vero
# protocol.summary: Inhibitory dose required to reduce the viability of vero cells by 50%
# Format: functional, Chlorocebus sabaeus
measured.metric: ID50

INSERT INTO measurements (compound, test_result) VALUES
  ('Cc1cn([C@@H]2C[C@H](O)[C@@H](CO)S2)c(=O)[nH]c1=O', '> 100 µM'),
  ('Nc1nc2c(ncn2COCCO)c(=O)[nH]1 [ACYCLOVIR]', '> 500 µM'),
  ('O=c1[nH]c(=O)n([C@H]2C[C@H](O)[C@@H](CO)O2)cc1/C=C/Br [BRIVUDINE]', '> 500 µM'),
  ('O=c1[nH]c(=O)n([C@H]2C[C@H](O)[C@@H](CO)S2)cc1/C=C/Br', '> 500 µM'),
  ('Cc1cn(C2CC(N=[N+]=[N-])C(CO)S2)c(=O)[nH]c1=O (stereo unspecified)', '> 100 µM'),
  ('Cc1cn([C@H]2C[C@H](O)[C@@H](CO)S2)c(=O)[nH]c1=O [4''-THIOTHYMIDINE]', '7.1 µM');
